pIC50: −log10 of the molar value.
The entries that follow carry pIC50 values tested on Tyrosine-protein kinase ABL1 (Homo sapiens), drawn from several published reports.

[
  {
    "sample smiles": "Cc1cn(-c2cc(C(=O)Nc3ccc(C)c(C#Cc4cnc5c(Nc6cnn(C)c6)nccn45)c3)cc(C(F)(F)F)c2)cn1",
    "pIC50": 8.31
  },
  {
    "sample smiles": "O=C(c1cc(O)ccc1F)c1c[nH]c2ncccc12",
    "pIC50": "≥ 5.00"
  },
  {
    "sample smiles": "Cn1cc(C(F)(F)F)c(-c2ccc(S(=O)(=O)NCc3c[nH]c4ncccc34)s2)n1",
    "pIC50": "≥ 5.00"
  },
  {
    "sample smiles": "O=C(Nc1n[nH]c2c1CCn1cc(C(=O)N3CCC(N4CCCCC4)CC3)cc1-2)c1ccccc1Cl",
    "pIC50": 6.09
  },
  {
    "sample smiles": "COc1cccc(C(=O)c2c[nH]c3ncc(-c4cccc(N)c4)cc23)c1",
    "pIC50": "≥ 5.00"
  },
  {
    "sample smiles": "O=C(Nc1n[nH]c2c1CCn1cc(C(=O)N3CCCCC3)cc1-2)c1ccccc1Cl",
    "pIC50": 5.75
  },
  {
    "sample smiles": "Cn1cc(-c2cc(Oc3ccc(NC(=O)Nc4nc5ccc(F)cc5s4)c(F)c3)ccn2)cn1",
    "pIC50": "> 7.00"
  },
  {
    "sample smiles": "O=C(c1cccc(O)c1)c1c[nH]c2ncc(-c3cccs3)cc12",
    "pIC50": "≥ 5.00"
  }
]
